The following binders are shown together with reported pKd values.
biological target: T1, Fc tagged human PDL1 (human, UniProt Q9NZQ7 19-239); assay: SPR
T1 construct: Bought (Sino Biological, cat. 10084-H02H); captured on the SPR chip; also called PDL1-Fc chimeric protein
Please express pKd as -log10 of the molar concentration.

BINDER: PRO1347 (scFv, also called scFv of 37-20-sc09.1; 37-20-B03-sc09) scFv: DIQMTQSPASLSASVGDRVTITCQASQSIGTYLAWYQQKPGKPPKLLIYRAFILASGVPSRFSGSGSGTDFTLTISSLQPEDFATYYCQSNFYSDSTTIGPNAFGTGTKVTVLGGGGGSGGGGSGGGGSGGGGSEVQLVESGGGLVQPGGSLRLSCAASGFSFNSDYWIYWVRQAPGKGLEWIASIYGGSSGNTQYASWAQGRFTISRDNSKNTVYLQMNSLRAEDTAVYFCARGYVDYGGATDLWGQGTLVTVSS
METRIC: pKd
ASSAY_RESULT: 11.05

q: State the recorded pKd for this entry: PRO1392 (scFv, also called scFv of 33-03-G02 sc18) scFv: DIQMTQSPSSLSASVGDRVTITCQASQSINDYLAWYQQKPGKAPKLLIYKASTLASGVPSRFSGSGSGTDFTLTISSLQPEDFATYYCQQGYIITDIDNVFGTGTKVTVLGGGGGSGGGGSGGGGSGGGGSQVQLQESGPGLVKPSETLSLTCKASGFSFSSGYDMCWVRQPPGKGLEWIACVVAGSVDITYYASWAKGRVTISKDSSKNQVSLKLSSVTAADTAVYYCARKDAYSDAFNLWGQGTLVTVSS
a: 11.00

Data credit: patent US20230192897A1
